- assayed.system: bovine erythrocyte GPx1 (Bos taurus, UniProt P00435)
- Construct: the isolated enzyme from bovine erythrocytes; purchased Sigma-Aldrich (Taufkirchen, Germany); host or cells: isolated from bovine erythrocytes
- Sequence (P00435 whole entry): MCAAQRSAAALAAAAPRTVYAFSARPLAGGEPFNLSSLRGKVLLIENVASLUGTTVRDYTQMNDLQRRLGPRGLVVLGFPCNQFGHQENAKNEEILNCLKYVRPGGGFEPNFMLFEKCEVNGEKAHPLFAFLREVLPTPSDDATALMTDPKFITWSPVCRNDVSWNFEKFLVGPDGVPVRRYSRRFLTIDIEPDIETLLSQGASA
- test.protocol: GPx1 enzyme activity assay (NADPH-coupled, t-BHP substrate)
- Format: biochemical
- settings: absolute IC50 (interpolation, 50% of GPx1 inhibited); n ≥ 3; read-out: Abs. IC50 (SD)
readout.kind: pIC50
One number for each entry, as −log10 of the molar value.

Please review the following examples before continuing.
smiles_input=CCOc1c2c(c3cnc4[nH]c(-c5ccc(OC)cc5)cc4n13)SSSSS2 readout_kind=pIC50 assay_value=5.83
smiles_input=CCOc1c2c(c3ccc(C(=O)N(CC)CC)cn13)SSSSS2 readout_kind=pIC50 assay_value=6.12
smiles_input=CCOc1c2c(c3ccc(C(=O)N4CCOCC4)cn13)SSSSS2 readout_kind=pIC50 assay_value=6.04
smiles_input=CCOc1c2c(c3ccc(C(=O)N4CCN(C(=O)c5ccc(F)cc5)CC4)cn13)SSSSS2 readout_kind=pIC50 assay_value=5.93

Now turn to the next compound.
Which pIC50 value is on record for CCOc1c2c(c3ccc(C(=O)N4CCCCC4)cn13)SSSSS2 ?
5.49

* * *

- System: Kyse-70
- test.protocol: MTT cell viability assay
- Assay type: cell-based
- settings: Homo sapiens, 48 h, normoxic (19% O2), read-out: IC50 MTT-N mean
- Method: Distinct MTT cell viability and crystal violet cell proliferation assays were performed to assess the cytotoxicity of the compounds 1–6 on 14 human cancer cell lines. […] The formazan can be photometrically detected after solubilization and allows for indirect conclusions about the viability of the cells as an IC50 value. […] The effect of the pentathiepins on the viability of the cell lines was assessed via an MTT assay, performed as previously described. […]
Cut-off 1000 nM on IC50: below means y, at or above means n.

smiles_input=CCOc1c2c(c3ccc(C(=O)N4CCOCC4)cn13)SSSSS2 label_class=y
smiles_input=CCOc1c2c(c3cnc4[nH]c(-c5ccc(OC)cc5)cc4n13)SSSSS2 label_class=y
smiles_input=CCOc1c2c(c3ccc(C(=O)N4CCCCC4)cn13)SSSSS2 label_class=n
smiles_input=CCOc1c2c(c3ccc(C(=O)N4CCN(S(=O)(=O)c5ccc(C)cc5)CC4)cn13)SSSSS2 label_class=n

Next item in the queue.
Field: below-cutoff. Rule: recorded IC50 strictly less than 1000 nM. Subject: CCOc1c2c(c3ccc(C(=O)N4CCN(C(=O)c5ccc(F)cc5)CC4)cn13)SSSSS2
y

* * *

- System: HAP-1, HAP-1.KO.GPx1, A2780, and Siso
- test.protocol: apoptosis (summary)
- Format: cell-based, human
- Parameters: key: no impact (0); weak impact (+); strong impact (++)
- settings: summary grade
readout.kind: Apoptosis

smiles_input=CCOc1c2c(c3ccc(C(=O)N(CC)CC)cn13)SSSSS2 assay_value=+
smiles_input=CCOc1c2c(c3ccc(C(=O)N4CCN(S(=O)(=O)c5ccc(C)cc5)CC4)cn13)SSSSS2 assay_value=+
smiles_input=CCOc1c2c(c3ccc(C(=O)N4CCOCC4)cn13)SSSSS2 assay_value=++
smiles_input=CCOc1c2c(c3ccc(C(=O)N4CCN(C(=O)c5ccc(F)cc5)CC4)cn13)SSSSS2 assay_value=++
smiles_input=CCOc1c2c(c3cnc4[nH]c(-c5ccc(OC)cc5)cc4n13)SSSSS2 assay_value=+

Now turn to the next molecule.
Which Apoptosis value is on record for CCOc1c2c(c3ccc(C(=O)N4CCCCC4)cn13)SSSSS2 ?
+
